The following molecules are listed with their measured phytotoxicity rating IPOHE values.
Tested on: ivyleaf morningglory (Ipomoea hederacea, IPOHE)
protocolDetails: Pre-emerge test, greenhouse herbicide activity screening
Assay type: in vivo
experimentalContext: pre-emerge, 250 g ai/ha, 14 days after application, rating scale 0-100
Description: A standard greenhouse herbicide activity screening system was used to evaluate the herbicidal efficacy and crop safety of these test compounds. […] At 14 days after application of the test materials, phytotoxicity ratings were recorded. […]

molecule: COc1c(Cl)cc(F)c(-n2c(=O)cc(C(F)(F)F)n(C)c2=O)c1OC(=O)c1ccc2ccccc2c1 [Compound 16-7]
phytotoxicity rating IPOHE: 0
--
molecule: CCOC(=O)C(Cl)Cc1c(OCC)c(Cl)cc(F)c1-n1c(=O)cc(C(F)(F)F)n(C)c1=O (stereo not drawn) [14-63]
phytotoxicity rating IPOHE: 0
--
molecule: COc1c(Cl)cc(F)c(-n2c(=O)cc(C(F)(F)F)n(C)c2=O)c1SC [Compound 17-1]
phytotoxicity rating IPOHE: 70
--
molecule: COc1c(Cl)cc(F)c(-n2c(=O)cc(C(F)(F)F)n(C)c2=O)c1NN=Cc1ccc(F)cc1F [15-20]
phytotoxicity rating IPOHE: 80
--
molecule: COc1c(Cl)cc(F)c(-n2c(=O)cc(C(F)(F)F)n(C)c2=O)c1NN=C(C)C [15-12]
phytotoxicity rating IPOHE: 100
--
molecule: COc1c(Cl)cc(F)c(-n2c(=O)cc(C(F)(F)F)n(C)c2=O)c1NNC(=O)Oc1ccccc1 [15-7]
phytotoxicity rating IPOHE: 100
--
molecule: COc1c(Cl)cc(F)c(-n2c(=O)cc(C(F)(F)F)n(C)c2=O)c1CC(C)(Cl)C(=O)OCCSC (stereo not drawn) [14-48]
phytotoxicity rating IPOHE: 0
--
molecule: Cn1c(C(F)(F)F)cc(=O)n(-c2ccc(Cl)cc2C(=O)c2ccccc2)c1=O [14-57]
phytotoxicity rating IPOHE: 0
--
molecule: COc1c(Cl)cc(F)c(-n2c(=O)cc(C(F)(F)F)n(C)c2=O)c1NNC(=O)c1ccc2ccccc2c1 [15-5]
phytotoxicity rating IPOHE: 100
--
molecule: COc1c(Cl)cc(F)c(-n2c(=O)cc(C(F)(F)F)n(C)c2=O)c1O [Compound 16-6]
phytotoxicity rating IPOHE: 90
--
molecule: CCOC(=O)C(Cl)(C#N)Cc1c(OC)c(Cl)cc(F)c1-n1c(=O)cc(C(F)(F)F)n(C)c1=O (stereo not drawn) [14-51]
phytotoxicity rating IPOHE: 50
--
molecule: COc1c(Cl)cc(F)c(-n2c(=O)cc(C(F)(F)F)n(C)c2=O)c1NN [Compound 15-1]
phytotoxicity rating IPOHE: 100

====

Here the recorded Post-emerge phytotoxicity rating RICE (crop damage) is given for each entry.
System: upland rice (Oryza sp., var. Tebonnet, RICE)
protocolDetails: Post-emerge test, crop safety
Type: in vivo
experimentalContext: Rate 250 g ai/ha; rating scale 0-100 (0 no damage, 100 complete death); 14 days after application
valueType: Post-emerge phytotoxicity rating RICE (crop damage)

compound: COc1c(Cl)cc(F)c(-n2c(=O)cc(C(F)(F)F)n(C)c2=O)c1CC(C)(Cl)C(=O)OCc1ccccc1 (stereo not shown)
assayTarget: upland rice (Oryza sp., var. Tebonnet, RICE)
measuredNumber: 95
//
compound: COc1c(Cl)cc(F)c(-n2c(=O)cc(C(F)(F)F)n(C)c2=O)c1CC(Cl)C(=O)OCC(Br)CBr (single isomer, unassigned) [14-30]
assayTarget: upland rice (Oryza sp., var. Tebonnet, RICE)
measuredNumber: 0
//
compound: COc1c(Cl)cc(F)c(-n2c(=O)cc(C(F)(F)F)n(C)c2=O)c1CC(C)(Cl)C(=O)OCC(F)(F)C(F)F (stereo not shown)
assayTarget: upland rice (Oryza sp., var. Tebonnet, RICE)
measuredNumber: 100
//
compound: COc1c(Cl)cc(F)c(-n2c(=O)cc(C(F)(F)F)n(C)c2=O)c1CC(Cl)C(=O)OC(C)(C)C (stereo not shown)
assayTarget: upland rice (Oryza sp., var. Tebonnet, RICE)
measuredNumber: 25
//
compound: CCCCOC(=O)C(C)(Cl)Cc1c(OC)c(Cl)cc(F)c1-n1c(=O)cc(C(F)(F)F)n(C)c1=O (stereo not shown)
assayTarget: upland rice (Oryza sp., var. Tebonnet, RICE)
measuredNumber: 60
//
compound: CCOC(=O)C(Br)Cc1c(OC)c(Cl)cc(F)c1-n1c(=O)cc(C(F)(F)F)n(C)c1=O (single isomer, unassigned) [14-32]
assayTarget: upland rice (Oryza sp., var. Tebonnet, RICE)
measuredNumber: 0
//
compound: CCOCCOC(=O)C(Cl)Cc1c(OC)c(Cl)cc(F)c1-n1c(=O)cc(C(F)(F)F)n(C)c1=O (stereo not shown)
assayTarget: upland rice (Oryza sp., var. Tebonnet, RICE)
measuredNumber: 10

====

Test system: sicklepod (Cassia obtusifolia, CASOB)
protocolDetails: Post-emerge test, greenhouse herbicide activity screening
Type: in vivo
experimentalContext: post-emerge, 63 g ai/ha, 14 days after application, rating scale 0-100
valueType: CASOB phytotoxicity rating

smilesInput: Cn1c(C(F)(F)F)cc(=O)n(-c2c(F)cc(Cl)cc2NC2CC2)c1=O
measuredNumber: 80

smilesInput: COc1c(C#N)cc(F)c(-n2c(=O)cc(C(F)(F)F)n(C)c2=O)c1NC(=O)C=Cc1ccccc1
measuredNumber: 80

smilesInput: Cn1c(C(F)(F)F)cc(=O)n(-c2ccc(C(F)(F)F)cc2NC(=O)c2ccc3ccccc3c2)c1=O
measuredNumber: 95

smilesInput: Cn1c(C(F)(F)F)cc(=O)n(-c2c(F)cc(Cl)cc2NC(=O)c2ccc3ccccc3c2)c1=O
measuredNumber: 100

smilesInput: COc1c(Cl)cc(F)c(-n2c(=O)cc(C(F)(F)F)n(C)c2=O)c1NC(=O)COc1ccc(F)cc1
measuredNumber: 80

smilesInput: COc1c(Cl)cc(F)c(-n2c(=O)cc(C(F)(F)F)n(C)c2=O)c1NC(=O)C=Cc1ccccc1[N+](=O)[O-]
measuredNumber: 60

smilesInput: Cn1c(C(F)(F)F)cc(=O)n(-c2ccc(C#N)cc2NC(=O)c2ccc3ccccc3c2)c1=O
measuredNumber: 100

smilesInput: Cn1c(C(F)(F)F)cc(=O)n(-c2ccc(C#N)cc2NC(=O)C=Cc2ccccc2)c1=O
measuredNumber: 50

smilesInput: COc1c(Cl)cc(F)c(-n2c(=O)cc(C(F)(F)F)n(C)c2=O)c1NC(=O)c1c(C)cccc1C
measuredNumber: 0

smilesInput: C=Cc1ccc(C(=O)N(C(=O)c2ccc(C=C)cc2)c2c(OC)c(Br)cc(F)c2-n2c(=O)cc(C(F)(F)F)n(C)c2=O)cc1
measuredNumber: 0

smilesInput: COc1c(Cl)cc(F)c(-n2c(=O)cc(C(F)(F)F)n(C)c2=O)c1NC(=O)CSC
measuredNumber: 0

smilesInput: COc1c(Cl)cc(F)c(-n2c(=O)cc(C(F)(F)F)n(C)c2=O)c1NC(=O)COc1ccc(Cl)cc1Cl
measuredNumber: 50

smilesInput: CCCSCC(=O)Nc1c(OC)c(Cl)cc(F)c1-n1c(=O)cc(C(F)(F)F)n(C)c1=O
measuredNumber: 60

smilesInput: COc1c(C#N)cc(F)c(-n2c(=O)cc(C(F)(F)F)n(C)c2=O)c1NC(=O)c1ccc2ccccc2c1
measuredNumber: 100

smilesInput: COc1c(Br)cc(F)c(-n2c(=O)cc(C(F)(F)F)n(C)c2=O)c1N(C(=O)C=Cc1ccccc1)C(=O)C=Cc1ccccc1
measuredNumber: 0

smilesInput: COc1c(Cl)cc(F)c(-n2c(=O)cc(C(F)(F)F)n(C)c2=O)c1NC(=O)Cc1ccccc1
measuredNumber: 10

smilesInput: COc1c(Cl)cc(F)c(-n2c(=O)cc(C(F)(F)F)n(N)c2=O)c1NC(=O)C=Cc1ccccc1
measuredNumber: 40

smilesInput: COc1c(Cl)cc(F)c(-n2c(=O)cc(C(F)(F)F)n(C)c2=O)c1NC(=O)c1ccc2c(C#N)cccc2c1
measuredNumber: 90

smilesInput: COc1ccc(-n2c(=O)cc(C(F)(F)F)n(C)c2=O)c(NC(=O)c2ccc3ccccc3c2)c1
measuredNumber: 70

====

Parameter: phytotoxicity rating RICE (crop damage). Scope: all listed entries.
Test system: upland rice (Oryza sp., var. Tebonnet, RICE)
protocolDetails: Post-emerge test, crop safety
Assay type: in vivo
experimentalContext: post-emerge, 250 g ai/ha, 14 days after application, rating scale 0-100
Description: A standard greenhouse herbicide activity screening system was used to evaluate the herbicidal efficacy and crop safety of these test compounds. […] At 14 days after application of the test materials, phytotoxicity ratings were recorded. […]

compound: Cn1c(C(F)(F)F)cc(=O)n(-c2ccc(Cl)cc2NC(=O)OCc2ccccc2F)c1=O [4-49]
phytotoxicity rating RICE (crop damage): 70
--
compound: COc1c(Cl)cc(F)c(-n2c(=O)cc(C(F)(F)F)n(C)c2=O)c1NC(=O)OCc1cccc(F)c1 [4-44]
phytotoxicity rating RICE (crop damage): 80
--
compound: CCOC(=O)C(C)Oc1c(Cl)cc(F)c(-n2c(=O)cc(C(F)(F)F)n(C)c2=O)c1NC(=O)c1ccc2ccccc2c1 (centres unmarked) [2-191]
phytotoxicity rating RICE (crop damage): 20
--
compound: COc1c(Cl)cc(F)c(-n2c(=O)cc(C(F)(F)F)n(C)c2=O)c1NC(=O)OCc1ccccc1C(F)(F)F [4-33]
phytotoxicity rating RICE (crop damage): 40
--
compound: Cn1c(C(F)(F)F)cc(=O)n(-c2c(F)cc(Cl)c(Oc3ncccc3[N+](=O)[O-])c2NC(=O)c2ccc3ccccc3c2)c1=O [2-199]
phytotoxicity rating RICE (crop damage): 90
--
compound: COc1c(Cl)cc(F)c(-n2c(=O)cc(C(F)(F)F)n(C)c2=O)c1NC(=O)C1CC1 [2-206]
phytotoxicity rating RICE (crop damage): 70
--
compound: COc1c(Cl)cc(F)c(-n2c(=O)cc(C(F)(F)F)n(C)c2=O)c1NC(=O)OCc1ccc(C)c(C)c1 [4-26]
phytotoxicity rating RICE (crop damage): 45
--
compound: COc1ccc(COC(=O)Nc2c(OC)c(Cl)cc(F)c2-n2c(=O)cc(C(F)(F)F)n(C)c2=O)cc1 [4-40]
phytotoxicity rating RICE (crop damage): 60
